The reported numbers originate from ChEMBL document CHEMBL1131922.

System: CCRF-CEM
Assay: In vitro cytotoxicity against human leukemia CCRF-CEM cell line
Assay type: functional, cell-based
ATTRIBUTE MEASURED: pIC50
Interpret pIC50 as the negative base-10 log of the concentration measured in mol/L.

Q) Would you kindly share the measured pIC50 for `COc1ccc(C[C@H]2NC(=O)/C=C/C[C@@H]([C@H](C)[C@H]3O[C@@H]3c3ccccc3)OC(=O)[C@H](CC(C)C)OC(=O)C3(CC3)CNC2=O)cc1Cl` ?
A) 9.80

Q) Would you kindly share the measured pIC50 for `COc1ccc(C[C@H]2NC(=O)/C=C/C[C@@H]([C@H](C)[C@H]3O[C@@H]3c3ccccc3)OC(=O)[C@H](CC(C)C)OC(=O)C(C)(C)CNC2=O)cc1Cl` ?
A) 10.70

Q) Would you kindly share the measured pIC50 for `COc1ccc(C[C@H]2NC(=O)/C=C/C[C@@H]([C@H](C)[C@@H](O)[C@@H](Cl)c3ccccc3)OC(=O)[C@H](CC(C)C)OC(=O)C3(CCCC3)CNC2=O)cc1Cl` ?
A) 9.40
